# TARGET_UNDER_TEST: human Fpn-GFP fusion (Homo sapiens)
# Construct: expressed in transfected cells; host or cells: HEK-293 cell line #354 (derivative of HEK-293 Tet-ON Advanced, Clontech)
# EXPERIMENT_DESCRIPTION: Ferroportin Internalization and Degradation Assay (FACS)
# Type: cell-based
# COND: average of multiple measurements; Fpn-GFP MFI, HEK-293 cell line #354, FACS
Reported pEC50 values for a set of compounds
// returns pEC50 (minus log10 of molar concentration), number only

Fill in: human Fpn-GFP fusion (Homo sapiens) pEC50 for "O=C(NCc1ncccc1F)c1coc(CCNCCc2nc3c(Cl)cccc3[nH]2)n1" = 6.31

Fill in: human Fpn-GFP fusion (Homo sapiens) pEC50 for "O=C(NCc1ncccc1Cl)c1csc(CCNCc2nc3ccccc3[nH]2)n1" = 6.16

Fill in: human Fpn-GFP fusion (Homo sapiens) pEC50 for "O=C(NCc1ncccc1F)c1coc(CCNCCc2nc3cc(F)ccc3[nH]2)n1" = 6.22

Fill in: human Fpn-GFP fusion (Homo sapiens) pEC50 for "O=C(NCc1ncccc1F)c1ncn(CCNCc2nc3ccccc3[nH]2)n1" = 5.38

Fill in: human Fpn-GFP fusion (Homo sapiens) pEC50 for "O=C(NCc1ncccc1Cl)c1coc(CCNCc2nc3ccccc3[nH]2)n1" = 6.54

Fill in: human Fpn-GFP fusion (Homo sapiens) pEC50 for "O=C(NCc1ncccc1F)c1csc(CCCNc2nc3ccccc3[nH]2)n1" = 4.67

---
Fill in: human Fpn-GFP fusion (Homo sapiens) pEC50 for "O=C(NCc1ncccc1F)c1ncn(CCNCCc2nc3ccccc3[nH]2)n1" = 6.03

Fill in: human Fpn-GFP fusion (Homo sapiens) pEC50 for "O=C(NCc1ncccc1F)c1coc(CCNCCc2nc3ccccc3[nH]2)n1" = 7.09

Fill in: human Fpn-GFP fusion (Homo sapiens) pEC50 for "O=C(NCc1ncccc1F)c1csc(CCNCCc2nc3c(F)cccc3[nH]2)n1" = 6.29

Fill in: human Fpn-GFP fusion (Homo sapiens) pEC50 for "O=C(NCc1ncccc1F)c1coc(CCNCc2nc3ccccc3[nH]2)n1" = 6.12

###

Reported pIC50 values for a set of compounds
# TARGET_UNDER_TEST: ferroportin (Fpn) (Mus musculus)
# Construct: host or cells: J774 mouse macrophage cell line, Fe(III)-NTA induced
# Sequence (Q9JHI9 1-570): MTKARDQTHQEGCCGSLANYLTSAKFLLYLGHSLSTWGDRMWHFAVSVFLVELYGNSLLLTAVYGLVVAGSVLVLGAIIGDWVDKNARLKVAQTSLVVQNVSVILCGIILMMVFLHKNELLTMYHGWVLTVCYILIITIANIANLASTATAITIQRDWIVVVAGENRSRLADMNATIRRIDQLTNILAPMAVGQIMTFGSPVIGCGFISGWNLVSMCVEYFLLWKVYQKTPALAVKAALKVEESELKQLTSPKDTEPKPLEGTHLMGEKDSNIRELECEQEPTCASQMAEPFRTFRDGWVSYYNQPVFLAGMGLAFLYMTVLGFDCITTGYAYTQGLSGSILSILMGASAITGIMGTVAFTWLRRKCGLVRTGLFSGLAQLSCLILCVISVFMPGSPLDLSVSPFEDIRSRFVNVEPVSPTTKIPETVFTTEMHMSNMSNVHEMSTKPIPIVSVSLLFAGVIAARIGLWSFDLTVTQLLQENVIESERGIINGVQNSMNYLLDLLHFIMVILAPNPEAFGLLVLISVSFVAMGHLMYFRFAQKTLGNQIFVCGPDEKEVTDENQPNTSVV
# EXPERIMENT_DESCRIPTION: Hepcidin Internalization Assay (J774)
# Assay type: cell-based
# COND: average of multiple measurements; inhibition of TMR-hepcidin (25 nM) internalization into J774 cells; read-out: J774 IC50
// returns pIC50 (minus log10 of molar concentration), number only

compound O=C(NCc1ccccc1S(=O)(=O)N1CCOCC1)c1csc(CCNCc2nc3ccccc3[nH]2)n1 [Example 75] , pIC50 observed: 6.28

compound O=C(NCc1ccccc1)c1csc(CCNCc2ccc(F)cn2)n1 [Example 6] , pIC50 observed: 4.90

compound O=C(NCc1ncccc1F)c1cncc(C2CN(CCc3nc4c(F)cccc4[nH]3)C2)c1 [compound 248] , pIC50 observed: 6.44

compound Cc1sc(CCNCCc2nc3ccccc3[nH]2)nc1C(=O)NCc1ncccn1 [Example 188] , pIC50 observed: 5.94

compound Cc1ccc(F)c(CNC(=O)c2csc(CCNCc3nc4ccccc4[nH]3)n2)n1 [Example 79] , pIC50 observed: 7.43

compound O=C(NCc1ccccc1OC(F)F)c1csc(CCNCc2nc3ccccc3[nH]2)n1 [Example 74] , pIC50 observed: 6.68

compound O=C(NCc1ncccc1F)c1coc(C2CN(CCc3nc4c(C(F)(F)F)cccc4[nH]3)C2)n1 [Example 273] , pIC50 observed: 6.64

compound O=C(NCc1ccccc1)c1csc(CCNCc2cn3ccccc3n2)n1 [Example 34] , pIC50 observed: 6.44

###

# TARGET_UNDER_TEST: ferroportin (Homo sapiens)
# Sequence (Q9NP59 1-571): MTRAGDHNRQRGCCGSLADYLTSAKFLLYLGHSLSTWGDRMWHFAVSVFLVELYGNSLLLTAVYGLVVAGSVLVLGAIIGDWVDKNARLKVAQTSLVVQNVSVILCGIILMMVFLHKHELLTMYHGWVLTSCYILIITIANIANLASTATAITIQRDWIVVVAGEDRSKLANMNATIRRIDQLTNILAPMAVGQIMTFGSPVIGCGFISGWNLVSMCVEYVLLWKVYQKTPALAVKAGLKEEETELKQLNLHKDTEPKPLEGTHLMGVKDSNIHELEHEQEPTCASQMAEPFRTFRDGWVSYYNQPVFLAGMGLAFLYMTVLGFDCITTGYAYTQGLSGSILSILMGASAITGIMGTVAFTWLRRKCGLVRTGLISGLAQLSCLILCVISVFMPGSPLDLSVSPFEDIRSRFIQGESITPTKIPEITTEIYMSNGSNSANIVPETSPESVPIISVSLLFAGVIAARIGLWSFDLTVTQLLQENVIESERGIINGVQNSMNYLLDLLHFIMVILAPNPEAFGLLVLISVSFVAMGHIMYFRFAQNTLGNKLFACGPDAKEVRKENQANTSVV
# EXPERIMENT_DESCRIPTION: Inhibition of Iron Efflux by Ferroportin Inhibitors
# COND: T47D cells, 58Fe in supernatant, 20 h; representative (FIG. 2)
VALUE_TYPE: IC50
Value and unit, in that order.

molecule O=C(NCc1ncccc1F)c1coc(CCNCCc2nc3ccccc3[nH]2)n1 [Example 127] , IC50 observed: 80 nM

###

# TARGET_UNDER_TEST: ferroportin (Fpn) (Mus musculus)
# Construct: host or cells: J774 mouse macrophage cell line, Fe(III)-NTA induced
# EXPERIMENT_DESCRIPTION: Hepcidin Internalization Assay (J774)
# Assay type: cell-based
# COND: average of multiple measurements; inhibition of TMR-hepcidin (25 nM) internalization into J774 cells; read-out: J774 IC50
VALUE_TYPE: IC50 (µM)
Numbers only; they are read as µM.

Consider the reported IC50 for these molecules:
Fill in: ferroportin (Fpn) (Mus musculus) IC50 for O=C(NCc1ccccc1)c1cccc(CCNCc2nc3ccccc3[nH]2)c1 [Example 67] = 0.53

Fill in: ferroportin (Fpn) (Mus musculus) IC50 for O=C(NCc1ccccn1)c1coc(CCNCCc2nc3ccccc3[nH]2)n1 [Example 171] = 0.026

Fill in: ferroportin (Fpn) (Mus musculus) IC50 for O=C(NCc1ccccc1)c1csc(CCNCc2n[nH]c3ccccc23)n1 [Example 5] = 10.4

Fill in: ferroportin (Fpn) (Mus musculus) IC50 for O=C(NCc1ncccc1F)c1ccnc(CCNCc2nc3ccccc3[nH]2)c1 [compound 222] = 3.4

Fill in: ferroportin (Fpn) (Mus musculus) IC50 for O=C(NCc1ncccc1F)c1nc(CCNCc2nc3ccccc3[nH]2)sc1Cl [Example 151] = 0.111

---
Fill in: ferroportin (Fpn) (Mus musculus) IC50 for O=C(NCc1ncccc1F)c1nc(C2CN(CCc3nc4ccccc4[nH]3)C2)sc1Cl [Example 209] = 0.379

Fill in: ferroportin (Fpn) (Mus musculus) IC50 for O=C(NCc1ccccn1)c1cnn(CCNCCc2nc3ccccc3[nH]2)c1 [Example 109] = 0.076

Fill in: ferroportin (Fpn) (Mus musculus) IC50 for O=C(NCc1ccccn1)c1coc(CCNCc2nc3ccccc3[nH]2)n1 [Example 137] = 0.514

Fill in: ferroportin (Fpn) (Mus musculus) IC50 for Cc1cc(C)c(CNC(=O)c2csc(CCNCc3nc4ccccc4[nH]3)n2)cn1 [Example 105] = 0.077

###

# TARGET_UNDER_TEST: human Fpn (Homo sapiens, UniProt Q9NP59)
# Construct: FLAG (C); made in house; host or cells: Pichia pastoris
# Sequence (Q9NP59 1-571): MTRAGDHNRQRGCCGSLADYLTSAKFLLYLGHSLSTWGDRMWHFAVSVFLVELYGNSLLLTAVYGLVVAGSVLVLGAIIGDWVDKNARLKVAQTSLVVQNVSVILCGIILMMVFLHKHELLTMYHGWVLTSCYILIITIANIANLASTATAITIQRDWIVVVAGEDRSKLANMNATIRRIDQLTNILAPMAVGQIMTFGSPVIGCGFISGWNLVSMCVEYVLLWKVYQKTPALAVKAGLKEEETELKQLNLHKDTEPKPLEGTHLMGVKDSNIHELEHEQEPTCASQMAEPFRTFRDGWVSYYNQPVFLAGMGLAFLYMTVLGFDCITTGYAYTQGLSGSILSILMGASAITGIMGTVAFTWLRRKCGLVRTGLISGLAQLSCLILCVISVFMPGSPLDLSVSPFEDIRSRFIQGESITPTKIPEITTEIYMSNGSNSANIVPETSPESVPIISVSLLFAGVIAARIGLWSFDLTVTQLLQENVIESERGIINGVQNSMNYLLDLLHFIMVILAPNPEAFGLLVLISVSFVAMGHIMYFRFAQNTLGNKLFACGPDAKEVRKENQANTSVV
# EXPERIMENT_DESCRIPTION: Biophysical Ferroportin-Hepcidin Binding Assay (fluorescence polarization)
# COND: average of multiple measurements; 1 μM human Fpn, 20 nM TMR-hepcidin; read-out: FP IC50
Reported IC50 values for a set of molecules
Value and unit, in that order.

Consider the reported IC50 for these molecules:
molecule COc1ccc(CNC(=O)c2csc(CCNCc3nc4ccccc4[nH]3)n2)nc1 [Example 45] , IC50 observed: 2100 nM

molecule O=C(NCc1ncccc1Cl)c1cnn(CCNCCc2nc3ccccc3[nH]2)c1 [Example 144] , IC50 observed: 73 nM

molecule O=C(NCc1ncccc1F)N1CCCC(CCNCCc2nc3ccccc3[nH]2)C1 (centres unmarked) [compound 200] , IC50 observed: 5650 nM

molecule COc1cccnc1CNC(=O)c1csc(CCNCc2nc3ccccc3[nH]2)n1 [Example 59] , IC50 observed: 270 nM

molecule O=C(NCc1ncccc1F)c1csc(CCNCc2ccc3nc[nH]c3c2)n1 [Example 139] , IC50 observed: 63100 nM

---
molecule Cc1ccc(F)c(CNC(=O)c2csc(CCNCc3nc4ccccc4[nH]3)n2)n1 [Example 79] , IC50 observed: 820 nM

molecule O=C(CC(=O)NCc1ncccc1F)NCCNCCc1nc2ccccc2[nH]1 [compound 168] , IC50 observed: 1360 nM
